Reference source: patent US20240218057A1

The following binders are shown together with reported EC50 values.
# target desc: SARS-COV-2 RBD (SARS-COV-2, UniProt P0DTC2 319-539)
# measurement notes: ELISA, RBD coated

| binder | EC50 [ng/mL] |
| --- | --- |
| C543 (antibody, V domains shown) VH: QVQLVESGGGVVQPGRSLRLSCTASGFTFSTAGMHWVRQAPGKGLEWVAVISYDGSNKDYADSVKGRFTISRDNSKSTLYLQMNSLRPEDTAVYYCAKDTPGGDDIMTGWGLYGMDVWGQGTTVTVSS VL: DIQMTQSPSSLSASVGDRVTITCRASQSISSYLNWYHQKPGKAPKLLIYAAISLQSGVPSRFSGSGFGTDFTLTISSLQPEDFAIYYCQQSYSTPWTFGQGTKVEIK | 1.28 |
| C069 (antibody, V domains shown) VH: QVQLVQSGAEVKKPGSSVNVSCKASGGTFSTYAIHWVRQAPGQGLEWMGGIIPLFHTANYAQKFQGRVTITADESTSTAYMELSSLRSEDTAMYYCAINTQWDLVPRWGRGTLVTVSS VL: EIVLTQSPGTLSLAPGERATLSCRASQSVNSNYLAWYQQKPGQAPRLLIYGASSRATGIPDRFSGSGSGTDFTLTISRLEPEDFAVYYCQQYGFSLYSFGQGTKLEIK | 381 |
| C051 (antibody, V domains shown) VH: EVQLVESGGGLIQAGGSLRLSCAASGFGVRNNYMSWVRQAPGKGLEWVSVIYSGGTTYYADSVKGRFTISRDNSKNTVFLQMNSLRAEDTAVYYCAREGDVEGFSDLWSGYSRDRYYFDYWGQGTLVTVSS VL: QSALTQPASVSGSPGQSITFSCTGTSSDVGGYNYVSWYQQYPGKAPKLLIYDVTNRPSGVSDRFSGSKSGNTASLTISGLQAEDEADYYCSSFTSSNTRVFGTGTKVTVL | 1.65 |
